Quick list: viability per entry.
assay: drug combination growth inhibition, ovarian cancer – cell-based, oncology-focused library, rucaparib conditional, profiling panel (AID 1508598); conditions: patient-derived ovarian cancer cells, CellTiter-Glo viability, 144 h; at 0.00122 µM; OCI-C5x cells; with rucaparib 10 µM; stronger effect = lower value; 100% = cells with rucaparib alone
Active and inactive are the calls of the source.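 Rule for the calls: active = normalized viability below 100% at a tested concentration; inactive = the rest.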

compound: C[C@@]12CC[C@H]3c4ccc(O)cc4C[C@@H](CCCCCCCCCS(=O)CCCC(F)(F)C(F)(F)F)[C@H]3[C@@H]1CC[C@@H]2O (some centres not stated)
viability: 116% (inactive)
--
compound: CC(=O)O[C@H]1C(=O)[C@@]2(C)C([C@H](OC(=O)c3ccccc3)[C@]3(O)C[C@H](OC(=O)[C@H](O)[C@@H](NC(=O)c4ccccc4)c4ccccc4)C(C)=C1C3(C)C)[C@]1(OC(C)=O)CO[C@@H]1C[C@H]2O (some centres not stated)
viability: 114% (inactive)
--
compound: CCCCCOC(=O)Nc1nc(=O)n([C@@H]2O[C@H](C)[C@@H](O)C2O)cc1F (some centres not stated)
viability: 119% (inactive)

Please examine the following record next.
[Q] Give its viability value. Item: "COc1cccc2c1C(=O)c1c(O)c3c(c(O)c1C2=O)C[C@@](O)(C(=O)CO)C[C@H]3O[C@H]1C[C@H](N)[C@H](O)[C@H](C)O1"
[A] 111% (inactive)

====

test: viability loss with induced miR-34 in A549 – imaging, A549 dox-inducible miR-34, nuclei and caspase counts, primary screen (AID 1347080); conditions: A549 miR-34 inducible, Hoechst nuclei count, 48 h; stronger effect = lower value; cell number ratio, induced over uninduced
reported.endpoint: fold change
I only need the number, thanks.

// worked examples, fold change included
compound: O=C(O)Cc1ccc(O)c(O)c1
fold change: 0.965
--
compound: NC(=O)c1noc(C(CCCC2CCCCC2)CC(=O)NO)n1 (stereo not given)
fold change: 0.791
--
compound: Cc1cc([N+](=O)[O-])ccc1NS(=O)(=O)c1cc(Cl)ccc1Cl
fold change: 0.984
--
compound: CN1CCN(Cc2cccc3cccnc23)CC1CCO (stereo not given)
fold change: 0.928

// moving on: another record for fold change
[Q] # query: fold change of entry CC1(C)S[C@@H]2[C@H](NC(=O)COc3ccccc3)C(=O)N2C1C(=O)O (stereo not given in full) (tested in a mixture with another compound)
[A] 0.957

====

experiment: growth inhibition, single agents and combos, UWB1.289, cell-based, BGB or cisplatin combos, synergistic combos for chromothripsis tumors (AID 1671456); conditions: UWB1.289 ovarian carcinoma cells, at 0.5 µM;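 note: cells exposed to compound for four days; 0% = vehicle DMSO and 100% = killing by high DMSO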
Active and inactive are the calls of the source. Cut-off read from the data, not from the text of the source: active = inhibition above about 80%; inactive = the rest.
Use one of these outcomes when replying: active, inactive

Below are worked cases with known answers.
compound: CCC(Sc1nnc2c3ccccc3n(CC)c2n1)C(=O)Nc1ccccc1OC (centres undefined)
label: inactive

compound: CCC(C)C(=O)OC1CC(C)C=C2C=CC(C)C(CCC3CC(O)CC(=O)O3)C21 (centres undefined)
label: inactive

compound: C[C@H](NC(=O)c1ccccc1N=Cc1c(O)ccc2ccccc12)c1ccccc1
label: inactive

compound: O=C(O)c1cc2cccc([N+](=O)[O-])c2[nH]1
label: inactive

compound: O=c1[nH]c(=O)n(C2CC(O)C(CO)O2)cc1I (centres undefined)
label: inactive

compound: NC(=S)NN=Cc1ncccc1N
label: inactive

compound: CO[C@H]1/C=C/O[C@@]2(C)Oc3c(C)c(O)c4c(O)c(c5c(c4c3C2=O)=NC2(CCN(CC(C)C)CC2)N=5)NC(=O)/C(C)=C\C=C\[C@H](C)[C@H](O)[C@@H](C)[C@@H](O)[C@@H](C)[C@H](OC(C)=O)[C@@H]1C
label: inactive

compound: CON=C1CN(c2nc3c(cc2F)c(=O)c(C(=O)O)cn3C2CC2)CC1CN (centres undefined)
label: inactive

Please examine the following record next.
[Q] Which outcome did this test record for the compound "O=C1N=c2ccccc2=C1c1c(O)[nH]c2ccccc12" ?
[A] inactive

====

experiment: drug combination growth inhibition, ovarian cancer – cell-based, oncology-focused library, rucaparib conditional, profiling panel (AID 1508598); conditions: patient-derived ovarian cancer cells, CellTiter-Glo viability, 144 h; at 0.313 µM; OCI-P5x cells; with rucaparib 20 µM; stronger effect = lower value; 100% = cells with rucaparib alone
*1 amine or outer side, *2 acyl side, *3 side chain or, on linkers, in order; H or OH if unused. Where a SMILES comes first, the peptide text is derived from it. Bridges are numbered along the chain shown (N, C = ends). Roman numbers before positions name the chains, in order. [ ]: non-standard residue; d: D form. Hexamethylenediamine = C(CCCN[*:2])CCN[*:1]; Dip = N[C@H](C(=O)O)C(c1ccccc1)c1ccccc1; Chg = N[C@H](C(=O)O)C1CCCCC1; NMeA = CN[C@@H](C)C(=O)O
reported.endpoint: viability (%)
The answer is to be given in %; state only the numeric part.

molecule: CCNC(=O)c1noc(-c2cc(Cl)c(O)cc2O)c1-c1ccc(OC)cc1
units.text: %
viability: 12

[Q] Which viability value belongs to "C=CCNC1=C2C[C@@H](C)C[C@H](OC)[C@H](O)[C@@H](C)/C=C(\C)[C@H](OC(N)=O)[C@@H](OC)/C=C\C=C(\C)C(=O)NC(=CC1=O)C2=O" ?
[A] 12.5

[Q] Which value of viability has been reported for "Nc1ncn([C@@H]2O[C@H](CO)[C@@H](O)[C@@H]2O)c(=O)n1" in the records?
[A] 114

[Q] Tell me the measured viability of "c1ccc(Cn2c(-c3ccc(OC[C@H](C4CCNCC4)n4c(-c5ccccc5)nc5ccccc54)cc3)nc3ccccc32)cc1" , please.
[A] 105

[Q] Name the recorded viability for "CC1(C)O[C@@H]2C[C@H]3[C@@H]4CCC5=CC(=O)C=C[C@]5(C)[C@]4(F)[C@H](O)C[C@]3(C)[C@@]2(C(=O)CO)O1" .
[A] 90.6

[Q] Quick check: viability of "N[C@@H]1CCCN(c2c(/C=C3\SC(=O)NC3=O)cccc2-c2ccccc2)C1" ?
[A] 91.3

[Q] Reported viability, molecule "C[C@]12CCC(=O)C=C1CC[C@@H]1[C@H]2[C@H](O)C[C@@]2(C)[C@H]1CC[C@@]2(O)C(=O)CO" : ____
[A] 104

[Q] Item CN[C@@H](C)C(=O)N[C@H](C(=O)N1CCC[C@H]1C(=O)N[C@H](C(=O)NCCCCCCNC(=O)[C@@H](NC(=O)[C@@H]1CCCN1C(=O)[C@@H](NC(=O)[C@H](C)NC)C1CCCCC1)C(c1ccccc1)c1ccccc1)C(c1ccccc1)c1ccccc1)C1CCCCC1 (I: H-[NMeA][Chg]P[Dip] / II: H-[NMeA][Chg]P[Dip]; linker I:C-II:C via Hexamethylenediamine) has what recorded viability?
[A] 19.6

[Q] Tell me the measured viability of "CC(C)(C)C(=O)Nc1ccc2c(c1)C(=O)C(=O)c1ccccc1-2" , please.
[A] 29.6

[Q] Look up viability for this molecule: "COc1ccccc1-c1cc(Nc2cccc(CS(N)(=O)=O)c2)ncn1"
[A] 93.6

[Q] Any idea what viability was measured for "CC(C)NCCCn1c(Sc2cc3c(cc2I)OCO3)nc2c(N)ncnc21" ?
[A] 15.7

[Q] Bench note: what viability did "O=C1[C@H](CC[C@H](O)c2ccc(F)cc2)[C@H](c2ccc(O)cc2)N1c1ccc(F)cc1" show?
[A] 94.9

[Q] Would you kindly share the measured viability for "CC1(C)C=C(CN2C/C(=C/c3ccc(F)cc3)C(=O)/C(=C/c3ccc(F)cc3)C2)C(C)(C)N1O" ?
[A] 96.7

[Q] So what's the measured viability for this one? "CC#C[C@@]1(O)CC[C@H]2[C@@H]3CCC4=CC(=O)CCC4=C3[C@H](c3ccc(N(C)C)cc3)C[C@@]21C"
[A] 83.6

[Q] Endpoint output: viability of "C[C@H]1C[C@H]2[C@@H]3CCC4=CC(=O)C=C[C@]4(C)[C@@H]3C(=O)C[C@]2(C)[C@]1(O)C(=O)CO" . Value?
[A] 100

====

Each record here notes measured cell count.
test: viability loss with induced miR-34 in A549 – imaging, A549 dox-inducible miR-34, nuclei and caspase counts, primary screen (AID 1347080); details: A549 miR-34 inducible, Hoechst nuclei count, 48 h; measured here: total cells with miR-34 induction; stronger effect = lower value
// print number alone

Before answering, review these 4 worked examples.
compound: COC1C[C@H]2CCC(C)[C@@](O)(O2)C(=O)C(=O)N2CCCC[C@H]2C(=O)OC(C(C)CC2CCC(OP(C)(C)=O)C(OC)C2)CC(=O)C(C)C=C(C)C(O)C(OC)C(=O)C(C)CC(C)C=CC=CC=C1C (some centres undefined)
cell count: 4570
--
compound: CCn1ncc2[nH]c(-c3cnn(C)c3-c3ccccc3)nc21
cell count: 8480
--
compound: CN[C@@H]1[C@H](O[C@H]2[C@H](O[C@@H]3[C@@H](O)[C@H](O)[C@@H](N=C(N)N)[C@H](O)[C@H]3N=C(N)N)O[C@@H](C)[C@]2(O)CO)O[C@@H](CO)[C@H](O)[C@H]1O
cell count: 9160
--
compound: CC(=Cc1ccc(C(=O)O)cc1)c1ccc2c(c1)C(C)(C)CCC2(C)C
cell count: 8250

[Q] For "C=CCNC(=O)c1cccnc1-c1ccc(OC)c2ncccc12" , what is its reported cell count?
[A] 9130

[Q] Endpoint output: cell count of COC1C=CO[C@@]2(C)Oc3c(C)c(O)c4c(O)c(c(C=NN5CCN(C)CC5)c(O)c4c3C2=O)NC(=O)C(C)=CC=CC(C)C(O)C(C)C(O)C(C)C(OC(C)=O)C1C (some centres undefined) . Value?
[A] 7970

[Q] Quick check: cell count of "NCCCNc1ccccc1[N+](=O)[O-]" ?
[A] 8170

[Q] Look up cell count: "CCn1cnc(NC(=O)N(C)Cc2cccc3ncccc23)n1"
[A] 9300

[Q] Which cell count value belongs to "Cn1cc(C=CC(=O)c2cccc(F)c2)cc1C=CC(=O)NO" ?
[A] 7610
